assay: Agilent ZORBAX 300 SB-C18, 150 × 1 mm, 3.5 µm; A: water + 0.01% heptafluorobutyric acid; B: acetonitrile + 0.01% heptafluorobutyric acid; gradient (min/%B) 0/0 100/90; settings: stereoisomer not certain
measurement-label: LC retention time (min)

[
  {
    "compound": "O=C1CC(N2CCN(C3CC(=O)N(CCc4ccccc4)C3=O)CC2)C(=O)N1CCc1ccccc1 (configuration not stated)",
    "LC retention time (min)": 12.4
  },
  {
    "compound": "O=C1c2ccccc2C(=O)N1CCN1CCNCC1",
    "LC retention time (min)": 8.07
  },
  {
    "compound": "CC12CCC(=O)C=C1CCC1C2CCC2(C)C1CCC2(C)O (configuration not stated)",
    "LC retention time (min)": 14.5
  },
  {
    "compound": "COc1ccc(C2=C(N)C(=O)NC2=O)cc1OC",
    "LC retention time (min)": 8.69
  }
]

P. Cc1oc(C)c(C(N)=O)c1C(N)=O
Q. O=C(C=Cc1ccco1)C1CC1
[Q] Returns: the label, P or Q , whose recorded LC retention time is the lower number. Refer to your chosen entry by its label in the reply.
[A] P
(P: 6.82 min, Q: 12.1 min)

1. NC1CCc2ccccc21 (configuration not stated)
2. CCCCc1ccc(-n2c(CCC(=O)O)ccc2-c2ccccc2)cc1
[Q] For the two items 1 and 2 , which reports the higher LC retention time value? Refer to your chosen entry by its label in the reply.
[A] 2

P. CCOc1ccccc1NC(=O)c1cc(=O)[nH]c(=O)[nH]1
Q. COc1ccc(NC(=O)c2ccc(C)cc2)c(OC)c1
R. CNC(=S)NNC(C)=O
[Q] # rank_down: sort by LC retention time, max first Give the order by naming the labels one after another as requested.
[A] Q, P, R
(Q: 14.2 min, P: 9.16 min, R: 2.17 min)

P. NC(=S)NN=C1CCCC1
Q. Cc1nc2ccccc2nc1CN1C(=O)C2CC=CCC2C1=O (configuration not stated)
R. O=c1cc[nH]cc1
[Q] Put the items in order so that reported LC retention time rises from first to last. Give the order by naming the labels one after another as requested.
[A] R, P, Q
(R: 4.89 min, P: 8 min, Q: 11.9 min)

I. Cc1cccc(NC(N)=S)n1
II. Cc1cc2[nH]c(=O)[nH]c2cc1N
[Q] For the two items I and II , which reports the higher LC retention time value? Refer to your chosen entry by its label in the reply.
[A] I
(I: 8.81 min, II: 6.14 min)

a. NCCNCCNCCN
b. CCNC(=O)C(=O)NCCc1c[nH]c2ccccc12
[Q] For the two items a and b , which reports the higher LC retention time value? Refer to your chosen entry by its label in the reply.
[A] b
(b: 10.8 min, a: 7.5 min)

* * *

assay: Agilent ZORBAX 300 SB-C18, 150 × 1 mm, 3.5 µm; A: water + 0.01% heptafluorobutyric acid; B: acetonitrile + 0.01% heptafluorobutyric acid; gradient (min/%B) 0/0 100/90; details: stereoisomer not certain
measurement-label: LC retention time (min)

[
  {
    "compound": "Nc1ccccc1NC(=O)Nc1ccccc1N",
    "units": "min",
    "LC retention time": 8.05
  },
  {
    "compound": "CC1=Nc2ccccc2Sc2ccccc21",
    "units": "min",
    "LC retention time": 14.5
  },
  {
    "compound": "N=C(N=C(N)N)N1CCSCC1",
    "units": "min",
    "LC retention time": 7.17
  },
  {
    "compound": "NCCCCCCNCCCCCCN",
    "units": "min",
    "LC retention time": 7.37
  },
  {
    "compound": "O=C(O)c1c2ccccc2nc2ccccc12",
    "units": "min",
    "LC retention time": 5.86
  },
  {
    "compound": "c1ccc(C2CN3CCSC3=N2)cc1 (configuration not stated)",
    "units": "min",
    "LC retention time": 8.73
  },
  {
    "compound": "NCCCOc1ccccc1",
    "units": "min",
    "LC retention time": 8.2
  }
]

* * *

assay: Agilent ZORBAX 300 SB-C18, 150 × 1 mm, 3.5 µm; A: water + 0.01% heptafluorobutyric acid; B: acetonitrile + 0.01% heptafluorobutyric acid; gradient (min/%B) 0/0 100/90; settings: stereoisomer not certain
measurement-label: LC retention time (min)

[
  {
    "compound": "Cc1ccccc1N1C(=O)c2ccc(C(=O)O)cc2C1=O",
    "units": "min",
    "reported-result": 12
  },
  {
    "compound": "O=C(O)C1CCCCC1C(=O)Nc1ccc2c(c1)CCCC2 (configuration not stated)",
    "units": "min",
    "reported-result": 13.8
  },
  {
    "compound": "C=C(C)C1CCC2=CC(=O)CC(C)C2(C)C1 (configuration not stated)",
    "units": "min",
    "reported-result": 17.1
  },
  {
    "compound": "COc1ccc2c(c1)C13CCCCC1C(C2)N(C)CC3 (configuration not stated)",
    "units": "min",
    "reported-result": 10.6
  },
  {
    "compound": "CCOC(=O)c1c(N)n(C(C)=O)[nH]c1=O",
    "units": "min",
    "reported-result": 6.93
  }
]

I. c1ccc(Cc2nc3ccccc3[nH]2)cc1
II. Cc1ccc2[nH]c(-c3ccccc3)cc2c1
[Q] For the two items I and II , which reports the higher LC retention time value? Refer to your chosen entry by its label in the reply.
[A] II
(II: 16.8 min, I: 9.23 min)

* * *

assay: Agilent ZORBAX 300 SB-C18, 150 × 1 mm, 3.5 µm; A: water + 0.01% heptafluorobutyric acid; B: acetonitrile + 0.01% heptafluorobutyric acid; gradient (min/%B) 0/0 100/90; conditions: stereoisomer not certain
measurement-label: LC retention time (min)

[
  {
    "molecule": "Cc1ccc(CN2CCN(N=Cc3ccco3)CC2)cc1",
    "LC retention time, min": 9.55
  },
  {
    "molecule": "CC1(C)SC2C(NC(=O)Cc3ccccc3)C(=O)N2C1C(=O)O (stereo not given)",
    "LC retention time, min": 10.5
  },
  {
    "molecule": "O=C(N=CNC(=O)c1cccnc1)c1cccnc1",
    "LC retention time, min": 7.45
  },
  {
    "molecule": "CC(C)(C)NCC(O)c1ccc(O)c(CO)c1 (stereo not given)",
    "LC retention time, min": 7.63
  },
  {
    "molecule": "Cn1c(C(C)(C)C)nc(N)nc1=O",
    "LC retention time, min": 7.21
  },
  {
    "molecule": "CC1(C)CC(NCC(=O)OC2CCCCC2)CC(C)(C)N1",
    "LC retention time, min": 8.55
  },
  {
    "molecule": "CCCc1cc(C(N)=O)ccn1",
    "LC retention time, min": 7.11
  },
  {
    "molecule": "CC(=O)Nc1cccc(C(C)=O)c1",
    "LC retention time, min": 8.35
  },
  {
    "molecule": "CC(=O)NNc1nc(C)cc(C)n1",
    "LC retention time, min": 6.5
  },
  {
    "molecule": "Cc1cccc(C)n1",
    "LC retention time, min": 6.46
  },
  {
    "molecule": "CC(=O)NCCOc1ccc(C)cc1",
    "LC retention time, min": 10.4
  },
  {
    "molecule": "Cc1cccc[n+]1CC(=O)c1ccccc1",
    "LC retention time, min": 8.36
  },
  {
    "molecule": "C=CC1CN2CCC1CC2C(O)c1ccnc2ccc(OC)cc12 (stereo not given)",
    "LC retention time, min": 9.1
  },
  {
    "molecule": "Cc1ccc(-n2c(O)c(C=Nc3ccc(O)cc3C)c(=O)[nH]c2=O)cc1",
    "LC retention time, min": 10.9
  },
  {
    "molecule": "Cc1ccc(NC2=NCCCS2)cc1",
    "LC retention time, min": 8.91
  }
]

* * *

experiment: Agilent ZORBAX 300 SB-C18, 150 × 1 mm, 3.5 µm; A: water + 0.01% heptafluorobutyric acid; B: acetonitrile + 0.01% heptafluorobutyric acid; gradient (min/%B) 0/0 100/90; settings: stereoisomer not certain
measurement-label: LC retention time (min)

Guide cases for LC retention time, answers given:
[
  {
    "compound": "CC(=Nc1ccc(N=Nc2ccccc2)cc1)N(C)C",
    "units": "min",
    "LC retention time": 10.9
  },
  {
    "compound": "NC(=O)c1ccccc1NC(=O)CN1CCCC1",
    "units": "min",
    "LC retention time": 7.36
  },
  {
    "compound": "Cc1ccc2cc(C)c(NCc3cccnc3)nc2c1",
    "units": "min",
    "LC retention time": 8.55
  },
  {
    "compound": "NC(=O)c1cc2c(ccc3ccccc32)oc1=O",
    "units": "min",
    "LC retention time": 11.1
  },
  {
    "compound": "c1ccc2c(c1)CCCN2",
    "units": "min",
    "LC retention time": 7.61
  }
]

1. CC1C(=O)CCN(C(C)(C)C)C1C (centres undefined)
2. CC(=O)Nc1c(C)cc(C)cc1NC(=O)c1cc2ccccc2o1
[Q] Returns: the label, 1 or 2 , whose recorded LC retention time is the lower number. Refer to your chosen entry by its label in the reply.
[A] 1
(1: 8.44 min, 2: 12.5 min)

P. CCn1c2ccccc2c2cc(N)ccc21
Q. CCCCCCCCCCCC(N)=O
[Q] For the two items P and Q , which reports the higher LC retention time value? Refer to your chosen entry by its label in the reply.
[A] Q
(Q: 16.7 min, P: 9.76 min)
